Data origin, for the record: paper PMC8924211

# system under test: T1, N-terminal-SNAP-tagged GAL2R, wild type (human, UniProt O43603 1-387, Lumi4-Tb on the SNAP tag)
# T1 construct: also called SNAP-GAL2R; GAL2R WT; source: HEK293, transfected, on cells; not shown: SNAP tag, N-terminal, kept
# T1 sequence (looked up): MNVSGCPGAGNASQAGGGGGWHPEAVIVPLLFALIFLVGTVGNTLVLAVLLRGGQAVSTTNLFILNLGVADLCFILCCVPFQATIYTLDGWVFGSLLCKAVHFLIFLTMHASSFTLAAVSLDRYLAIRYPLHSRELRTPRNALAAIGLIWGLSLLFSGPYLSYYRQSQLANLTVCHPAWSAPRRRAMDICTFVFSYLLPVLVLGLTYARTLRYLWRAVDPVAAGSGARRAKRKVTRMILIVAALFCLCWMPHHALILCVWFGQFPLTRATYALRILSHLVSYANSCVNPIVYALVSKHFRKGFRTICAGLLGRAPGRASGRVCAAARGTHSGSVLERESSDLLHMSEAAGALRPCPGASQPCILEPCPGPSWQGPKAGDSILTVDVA
# assay procedure: AlphaScreen or HTRF; saturation binding: HEK293 cells transfected with SNAP-tagged receptor (WT or mutant) and labelled with SNAP-Lumi4-Tb, incubated with increasing concentrations of galanin-A2 in the presence or absence of 100 uM unlabeled galanin, 1 h at room temperature; HTRF ratio 665 nm/620 nm
# applied conditions: one partner purified
measurement type: Kd (nM)
Field format: number, assumed nM, no unit text.

// lookup Kd for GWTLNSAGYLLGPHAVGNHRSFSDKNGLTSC (dye A2 on the additional C-terminal cysteine, numbers count on: the mature protein; additional cysteine at the C-terminal end of the peptide, carries the dye A2; source: synthetic peptide (synthesized by Vazyme, China))
21.7
